Biological target: T1, human FLT3 (FMS-like tyrosine kinase 3) (human, UniProt P36888 27-993)
T1 sequence (looked up): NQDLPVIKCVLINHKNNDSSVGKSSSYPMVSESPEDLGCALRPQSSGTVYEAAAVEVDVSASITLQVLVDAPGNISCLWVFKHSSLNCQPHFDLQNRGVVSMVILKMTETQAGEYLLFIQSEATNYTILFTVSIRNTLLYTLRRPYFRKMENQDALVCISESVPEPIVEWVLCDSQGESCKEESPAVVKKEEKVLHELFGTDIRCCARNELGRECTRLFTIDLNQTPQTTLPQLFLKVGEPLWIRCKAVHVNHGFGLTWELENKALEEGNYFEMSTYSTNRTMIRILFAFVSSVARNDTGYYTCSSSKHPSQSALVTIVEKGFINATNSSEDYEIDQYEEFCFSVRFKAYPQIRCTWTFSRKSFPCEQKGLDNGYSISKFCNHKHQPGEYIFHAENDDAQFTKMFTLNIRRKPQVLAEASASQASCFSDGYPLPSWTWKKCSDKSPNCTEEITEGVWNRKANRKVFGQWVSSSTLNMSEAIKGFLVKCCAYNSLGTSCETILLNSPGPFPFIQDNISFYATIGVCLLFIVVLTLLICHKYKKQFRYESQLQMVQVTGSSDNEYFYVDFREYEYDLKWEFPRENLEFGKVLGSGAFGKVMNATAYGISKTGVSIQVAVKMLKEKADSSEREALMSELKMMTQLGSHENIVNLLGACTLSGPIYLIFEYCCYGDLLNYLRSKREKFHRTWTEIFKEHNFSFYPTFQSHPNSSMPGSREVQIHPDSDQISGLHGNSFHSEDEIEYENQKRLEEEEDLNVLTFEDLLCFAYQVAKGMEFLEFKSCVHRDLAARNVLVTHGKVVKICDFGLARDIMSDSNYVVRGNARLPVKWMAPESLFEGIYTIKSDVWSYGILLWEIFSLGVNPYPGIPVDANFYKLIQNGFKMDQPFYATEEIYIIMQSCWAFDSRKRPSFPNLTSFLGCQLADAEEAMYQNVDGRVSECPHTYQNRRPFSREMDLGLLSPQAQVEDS
Experiment: cell-based or functional assay
Result Type: Single dose STAT5-Luc assay, activity relative to NB1016 (chimeric), antibody at 1 nM (%)
All answers are understood in %, so give the number only.

[
  {
    "Binder": "Humanized VH5 x Humanized VL4 (antibody, V domains shown) VH: EVQLVESGGVVVQPGGSLRLSCAPSGFTFSNYGMAWVRQAPGKGLEWVSSIHSGGGDTYYADSVKGRFTISRDNSKNSLYLQMNSLRTEDTALYYCARGRTPTGYYFDHWGQGTMVTVSS VL: DIQMTQSPSSLSASVGDRVTITCRASEGIHNGLAWYQQKPGKAPKRLIYNANSLHSRVPSRFSGSGSGTEFTLTISSLQPEDFATYYCQQYYDYPLTFGQGTKLEIK",
    "Quantitative Readout": 77
  },
  {
    "Binder": "Humanized VH3 x Humanized VL2 (antibody, V domains shown) VH: EVQLVESGGGLVQPGGSLRLSCAPSGFTFSNYGMAWVRQAPGKGLVWVSSIHSGGGDTYYRDSVKGRFTISRDNAKNTLYLQMNSLRAEDTAVYYCARGRTPTGYYFDHWGQGTMVTVSS VL: AIQMTQSPSSLSASVGDRVTITCRASEGIHNGLAWYQQKPGKAPKLLIYNANSLHSGVPSRFSGSGSGTDFTLTISSLQPEDFATYYCQQYYDYPLTFGQGTKLEIK",
    "Quantitative Readout": 81
  }
]

// next item, Single dose STAT5-Luc assay, activity relative to NB1016 (chimeric), antibody at 1 nM requested
# input Give the measured Single dose STAT5-Luc assay, activity relative to NB1016 (chimeric), antibody at 1 nM of Humanized VH5 x Humanized VL1 (antibody, V domains shown) VH: EVQLVESGGVVVQPGGSLRLSCAPSGFTFSNYGMAWVRQAPGKGLEWVSSIHSGGGDTYYADSVKGRFTISRDNSKNSLYLQMNSLRTEDTALYYCARGRTPTGYYFDHWGQGTMVTVSS VL: DIQMTQSPSSLSASVGDRVTITCRASEGIHNGLAWYQQKPGKVPKLLIYNANSLHSGVPSRFSGSGSGTDFTLTISSLQPEDVATYFCQQYYDYPLTFGQGTKLEIK .
# output 83
